assay: Cycloheximide Counterscreen for Small Molecule Inhibitors of Shiga Toxin; settings: cell reporter, cycloheximide protein synthesis inhibition counterscreen; further: read at 38.3 µM for the half of the compounds with a filed dose
Among all 300,000 compounds or so, about 37,000 (12%) were called active. No stated cut-off is given here; in the data, active means max response mostly above about 13% (no sharp cut-off); inactive means mostly below about 14%. The list comes from a sample in which actives are over-represented; it also holds close analogues and randomly drawn compounds.
Lab note: assign the record to one of 1 (yes) = active, 0 (no) = inactive

Use these answered entries as a reference point.
CCCCc1nc(SCC(=O)Nc2nnc(C(C)C)s2)n[nH]1 :: 0 (no)
CC(=NCC1CCCO1)c1c(O)n(-c2ccccc2)c(=O)[nH]c1=O (stereo unspecified) :: 0 (no)
Cc1ccc(Cn2c(SCC(=O)N/N=C/c3ccccc3OCC(=O)O)nc3ccccc32)cc1 :: 0 (no)
Cc1ccc(/C=N/NC(=O)CSc2nc3ccccc3o2)cc1 :: 1 (yes)
Cn1c(=O)[nH]c(=O)c2c1nc(Br)n2CCCCSc1nc2ccccc2o1 :: 0 (no)

Consider the record given below.
Called result for "Cn1c(SCC(=O)N/N=C/c2ccc(O)c(O)c2)nc2ccccc21"
0 (no)

* * *

experiment: Cycloheximide Counterscreen for Small Molecule Inhibitors of Shiga Toxin; conditions: cell reporter, cycloheximide protein synthesis inhibition counterscreen; stronger effect = higher value; further: read at 38.3 µM for the half of the compounds with a filed dose
The whole screen tested about 300,000 compounds, of which about 37,000 (12%) were called active. Only a selection was taken, and actives are over-represented in it overall.
Metric: max response

# annotated cases, reported max response shown
COc1ccc2c(Cl)c(-c3nnco3)sc2c1 :: 0.855% (inactive)
CC(C)C(=O)Nc1ccc2c(c1)oc1ccccc12 :: 67% (active)
CSCCC(NS(=O)(=O)c1ccc2c(c1)oc(=O)n2C)C(=O)NC1CCCc2ccccc21 (stereo unspecified) :: 7.75% (inactive)
C#CCSc1nnc(-c2sc3ccccc3c2Cl)o1 :: 46.5% (active)
O=C(OCC#CCSc1nnc(-c2ccncc2)o1)c1sc2ccccc2c1Cl :: -4.75% (inactive)

Field: max response. Fill in for each record below.
1. Cc1cc(Cl)ccc1OCc1nc(-c2ccncc2)no1
2. CC(NC(=O)c1cccc2ccccc12)c1ccc2c(c1)CCCC2 (stereo unspecified)
3. CCOCCCNC(=O)c1cn(CC(C)C)c(=O)c2c1c1ccccc1n2C
4. COc1ccc(S(=O)(=O)NCCc2cc3ccc(C)c(C)c3[nH]c2=O)cc1
5. C=CCn1c(SCC(=O)NCCCO)nc2sc3c(c2c1=O)CCC3
6. Cc1cc(Cl)ccc1OCCCC(=O)NCc1ccncc1

35.5% (active)
-1.47% (inactive)
1.59% (inactive)
-6.24% (inactive)
-2.04% (inactive)
2.81% (inactive)

* * *

assay: Cycloheximide Counterscreen for Small Molecule Inhibitors of Shiga Toxin; details: cell reporter, cycloheximide protein synthesis inhibition counterscreen; stronger effect = higher value; further: read at 38.3 µM for the half of the compounds with a filed dose
The whole screen tested about 300,000 compounds, of which about 37,000 (12%) were called active. The list comes from a sample in which actives are over-represented; it also holds close analogues and randomly drawn compounds.
Metric: max response (%)
Answers are plain numbers, in %.

Cc1ccc(C)c(NC(=O)CSc2nc3c(oc4ccccc43)c(=O)n2-c2ccccc2)c1 :: 0.718

Field: max response. Fill in for each record below.
1. CCC(C(=O)Nc1ccc(C(C)C)cc1)c1ccccc1 (stereo not drawn)
2. O=C(COc1ccc(Cl)cc1)Nc1ccc2c(c1)OCO2
3. Cc1noc(C)c1-c1ccc2ncnc(NCc3ccc(F)c(F)c3)c2c1
4. O=C(NCCCN1CCOCC1)c1ccccc1NS(=O)(=O)c1ccc(F)cc1
5. O=C(NCCCN1CCOCC1)c1cc(-c2cccc(O)c2)on1
6. O=C(NCCCN1CCOCC1)c1cc(-c2ccccc2F)no1

[-1.28, 15.8, -5.05, 16.7, 2.22, 28]

Field: max response. Fill in for each record below.
1. CCC(CC)c1nnc(NC(=O)C2CCN(C(=O)c3ccco3)CC2)s1
2. Cc1ccc(CN2CCN(c3ncccn3)CC2)c(C)c1
3. O=C(NCCCN1CCOCC1)c1cc(-c2ccc(Cl)cc2)on1
4. Cc1noc(C)c1-c1ccc2ncnc(NC(C)c3ccco3)c2c1 (stereo not drawn)
5. O=C(c1ccco1)N1CCN(C(=O)c2cc(-c3ccccc3F)no2)CC1
6. COc1ccc(Nc2nc(Cl)nc(NCc3ccco3)n2)cc1
7. O=C(NCCCN1CCOCC1)c1cnn2c(-c3ccccc3)cc(-c3ccccc3)nc12
8. Cc1noc(C)c1-c1ccc2ncnc(NCc3ccc4[nH]ccc4c3)c2c1

[-2.36, 1.42, -2.13, 14.8, 24.9, 5.68, -2.91, 56.1]

* * *

assay: Cycloheximide Counterscreen for Small Molecule Inhibitors of Shiga Toxin; settings: cell reporter, cycloheximide protein synthesis inhibition counterscreen; further: read at 38.3 µM for the half of the compounds with a filed dose
In all, about 300,000 compounds went through this assay and about 37,000 (12%) were called active. Cut-off read from the data, not from the text of the source: active = max response mostly above about 13% (no sharp cut-off); inactive = mostly below about 14%. What follows is part of a selection rich in actives, with near analogues and random picks from the rest.
Lab note: assign the record to one of active, inactive

Use these answered entries as a reference point.
COc1ccc(CCNc2cc(C)nc3c(-c4ccc(Cl)cc4)c(C)nn23)cc1OC :: inactive
O=C(COc1ccccc1)N1CCc2ccccc2C1 :: active
Cc1cccc(C)c1OCC(=O)NC(Cc1c[nH]c2ccccc12)C(=O)O (configuration not stated) :: inactive
COc1ccc(-c2cc(C(=O)NC(C(=O)O)C(C)C)c(C)o2)cc1OC (configuration not stated) :: active
COc1ccc(-c2cc(C(=O)NC(Cc3c[nH]c4ccccc34)C(=O)O)c(C)o2)cc1OC (configuration not stated) :: active

Called result for "O=C(O)CSc1nccc2ccccc12"
inactive

Called result for "CN(C)S(=O)(=O)c1ccc(N2CCCC2)c(C(=O)Nc2cccc(F)c2)c1"
inactive

Called result for "O=C(CN1CCCCCC1)Nc1ccc(Br)cc1[N+](=O)[O-]"
inactive

Called result for "O=C(C1CCN(c2nnc(-n3cccc3)s2)CC1)N1CCc2ccccc2C1"
inactive

Called result for "CCOC(=O)c1c(NC(=O)c2ccc(N3CCOCC3)c([N+](=O)[O-])c2)sc(C)c1C"
inactive

* * *

assay: Cycloheximide Counterscreen for Small Molecule Inhibitors of Shiga Toxin; settings: cell reporter, cycloheximide protein synthesis inhibition counterscreen; further: read at 38.3 µM for the half of the compounds with a filed dose
About 37,000 (12%) of roughly 300,000 compounds were called active. No stated cut-off is given here; in the data, active means max response mostly above about 13% (no sharp cut-off); inactive means mostly below about 14%. Many of the other results were omitted from the sample, so actives are more common in it than they were.
Lab note: assign the record to one of True (active), False (inactive)

Use these answered entries as a reference point.
O=C(N/C(=C\c1ccc([N+](=O)[O-])cc1)C(=O)N1CCOCC1)c1cccc(Br)c1 :: False
CCCn1nnnc1NC(=O)COc1ccc(Cl)cc1C :: False
O=C(c1cccc([N+](=O)[O-])c1)N1CCN(Cc2ccccc2)CC1 :: False

Called result for "Cc1c(Br)c([N+](=O)[O-])nn1CC(=O)N1CCN(Cc2ccccc2)CC1"
True

Called result for "COc1ccccc1N1CCN(C(=O)CSc2nnc(-c3ccoc3C)o2)CC1"
False

* * *

assay: Cycloheximide Counterscreen for Small Molecule Inhibitors of Shiga Toxin; conditions: cell reporter, cycloheximide protein synthesis inhibition counterscreen; further: read at 38.3 µM for the half of the compounds with a filed dose
The whole screen tested about 300,000 compounds, of which about 37,000 (12%) were called active. Cut-off read from the data, not from the text of the source: active = max response mostly above about 13% (no sharp cut-off); inactive = mostly below about 14%. Shown is part of a subset that was picked to be rich in actives.
Lab note: assign the record to one of active, inactive

Use these answered entries as a reference point.
CN(C(=O)COC(=O)CNC(=O)C12CC3CC(CC(C3)C1)C2)c1ccccc1 :: inactive
CCCCCC(=O)NC(=S)NNC(=O)c1ccc([N+](=O)[O-])cc1 :: inactive
COC(=O)c1ccccc1NC(=O)CSc1n[nH]c(-c2ccncc2)n1 :: inactive
COc1ccccc1OCCNC(=O)c1cc([N+](=O)[O-])cc([N+](=O)[O-])c1 :: inactive
CN=C1S/C(=C\c2c(OC)cc(OC)cc2OC)C(=O)N1C :: inactive

Called result for "COC(=O)c1ccccc1NC(=O)C1CCN(C(=O)N2CCOc3ccccc32)CC1"
inactive

Called result for "Cc1nc(SCc2ccc(F)cc2)c([N+](=O)[O-])[nH]1"
active

Called result for "COCCCNC(=S)NC(=O)c1ccc([N+](=O)[O-])cc1"
active

Called result for "COCCCNC(=S)NNC(=O)C(O)(c1ccccc1)c1ccccc1"
inactive

Called result for "C[C@]1(C(=O)NCCc2c[nH]c3ccccc23)C=C[C@@H](Cc2ccccc2)N1C(=O)c1ccccc1"
inactive

* * *

assay: Cycloheximide Counterscreen for Small Molecule Inhibitors of Shiga Toxin; settings: cell reporter, cycloheximide protein synthesis inhibition counterscreen; further: read at 38.3 µM for the half of the compounds with a filed dose
The whole screen tested about 300,000 compounds, of which about 37,000 (12%) were called active. No stated cut-off is given here; in the data, active means max response mostly above about 13% (no sharp cut-off); inactive means mostly below about 14%. The sample holds actives, similar compounds and a random draw of the others, so the mix is not that of the screen.
Lab note: assign the record to one of True (active), False (inactive)

Use these answered entries as a reference point.
COc1ccc(C2CC(c3ccccc3)=NN2C(=O)c2ccc(Cl)c([N+](=O)[O-])c2)cc1 (stereo not given) :: False
O=C(Cc1c(F)cccc1Cl)Nc1ccc(-n2cnnn2)cc1 :: False
CC(=O)Oc1ccccc1C(=O)Nc1ncc([N+](=O)[O-])s1 :: True
O=C(Nc1nc2c(F)cc(F)cc2s1)C1COc2ccccc2O1 (stereo not given) :: True
Cc1ccc(S(=O)(=O)N(C)C)cc1NC(=O)COC(=O)C1COc2ccccc2O1 (stereo not given) :: False

Called result for CC(C(=O)NC1CCCCC1)N1C(=O)c2cccc3cccc1c23 (stereo not given)
False

Called result for COc1ccc(C2CC(c3ccc([N+](=O)[O-])cc3)=NN2C(C)=O)cc1 (stereo not given)
True

Called result for "CN(c1ccccc1)S(=O)(=O)c1cccc(NC(=O)Cc2c(F)cccc2Cl)c1"
False

Called result for COc1ccc(C2=NN(C(=O)c3cccnc3)C(c3ccccc3)C2)cc1 (stereo not given)
False

Called result for CCN(CC)S(=O)(=O)c1ccc(N2CCOCC2)c(NC(=O)C2COc3ccccc3O2)c1 (stereo not given)
False
